- system.tested: T1, in-line fusion protein of human IL-36R extracellular domain and IL1RAcP extracellular domain expressed with … (human; mouse, UniProt Q9HB29 20-337; Q9NPH3 21-359, limits assumed)
- T1 construct: not shown: mouse IgG2a Fc
- T1 sequence (looked up): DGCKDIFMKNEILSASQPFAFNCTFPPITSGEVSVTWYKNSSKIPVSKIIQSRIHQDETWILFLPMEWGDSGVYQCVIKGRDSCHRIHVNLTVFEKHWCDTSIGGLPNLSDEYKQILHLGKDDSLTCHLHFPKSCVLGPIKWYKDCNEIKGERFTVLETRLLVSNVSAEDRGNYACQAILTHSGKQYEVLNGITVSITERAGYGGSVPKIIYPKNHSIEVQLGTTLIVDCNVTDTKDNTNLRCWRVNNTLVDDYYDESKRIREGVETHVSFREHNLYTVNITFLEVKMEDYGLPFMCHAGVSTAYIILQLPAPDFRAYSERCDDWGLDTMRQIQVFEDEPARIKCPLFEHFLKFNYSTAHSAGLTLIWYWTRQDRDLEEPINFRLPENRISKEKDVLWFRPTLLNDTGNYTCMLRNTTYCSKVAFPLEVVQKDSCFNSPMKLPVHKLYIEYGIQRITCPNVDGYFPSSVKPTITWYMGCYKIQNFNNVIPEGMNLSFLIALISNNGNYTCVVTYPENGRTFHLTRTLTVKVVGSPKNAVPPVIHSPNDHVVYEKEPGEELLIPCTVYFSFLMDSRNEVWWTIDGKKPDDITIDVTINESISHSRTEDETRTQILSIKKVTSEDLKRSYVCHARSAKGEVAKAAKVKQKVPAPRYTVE
- assay: SPR Biacore 4000, mAb captured on anti-hFc, 25C
Measured 100 nM hIL-36R-Trap-mFc Bound (RU), listed per entry.

{"binder": "H4H14699P2 (antibody, human IgG4 S228P, kappa, V domains shown, Fully human anti-IL-36R antibody) VH: EVQLVESGGGLVQPGRSLRLSCAASGFTFDDYAIHWVRQAPGKGLEWVSVISWNSDIIGYADSVKGRFTVSRDNAKNSLYLQMNSLRTEDTALYYCAKGYNWNFFDYWGQGTLVTVSS VL: EIVLTQSPATLSLSPGERATLSCRASQSVSSYLAWYQQKPGQAPRLLIYNAANRATDIPARFSGSGSGTDFTLTISSLEPEDFAVYYCQQRSNWPLTFGGGTKVEIKR", "100 nM hIL-36R-Trap-mFc Bound (RU)": 188}
{"binder": "H4H14728P (antibody, human IgG4 S228P, kappa, V domains shown, Fully human anti-IL-36R antibody) VH: QVQLQESGPGLVKPSQTLSLTCTVSGGSISSADYYWSWIRQHPGKGLEWIGSIYYTGSTYYNPSLKSRLTISIDTSENQFSLKLTSLTAADTAVYYCASEEANWGSHFDSWGQGTLVTVSS VL: DIQMTQSPSSLSASVGDRVTITCRASQSIDNFLNWYQQKPGKAPKLLIYAASSLQSGVPSRFSGSGSGTDFTLTISSLQPEDFASYYCQHSHSAHPITFGQGTRLEIKR", "100 nM hIL-36R-Trap-mFc Bound (RU)": 63}
{"binder": "H4H14708P2 (antibody, human IgG4 S228P, kappa, V domains shown, Fully human anti-IL-36R antibody) VH: EVQLVESGGDLVQPGRSLRLSCAASGFTFDDYAMHWVRQAPGKGLEWVSVISWNSDVIAYSDSVKGRFTISRDNAKNSLYLQMNSLRTEDTALYYCTKGHKWSFFDYWGQGTLVTVSS VL: EIVLTQSPATLSLSPGERATLSCRASQSISSYLAWYQQKPGQAPRLLIFNVANRATDIPARFSGSGSGTDFTLTISSLEPEDFAVYYCQQRSNWPLTFGGGTKVEIKR", "100 nM hIL-36R-Trap-mFc Bound (RU)": 172}
{"binder": "H4H14758P (antibody, human IgG4 S228P, kappa, V domains shown, Fully human anti-IL-36R antibody) VH: EVQLVESGGGLVQPGRSLRLSCAASGFTFDDYAMHWVRQAPGKGLEWVSSVRWNGGIIGYADSVKGRFTISRDNAKNSLYLQMNSLRPEDTALYYCAKDIGDVLTGYYGEYGMDVWGQGTTVTVSS VL: DIQMTQSPSSLSASVGDRVTIACRASQSITTYLNWYQQKPGKAPKLLIYAASSLQSGVPSRFSGSGSGTDFTLTISSLQPEDFATYYCQQSYISPYTFGQGTKLEIKR", "100 nM hIL-36R-Trap-mFc Bound (RU)": 197}
{"binder": "H4H14700P2 (antibody, human IgG4 S228P, kappa, V domains shown, Fully human anti-IL-36R antibody) VH: EVQLVESGGGLVQPGRSLRLSCAASGFTFDDYAMHWVRQTPGKGLEWVSVISWNSDVIAYSDSVKGRFTISRDNAKNSLYLQMNSLGTEDTALYYCAKGHNWNFFDYWGQGTLVTVSS VL: EIVLTQSPATLSLSPGERATLSCRASQSVSSYLAWYQQKPGQAPRLLIYNVANRATDIPARFSGSGSGTDFTLTISGLEPEDFAVYFCQQRSNWPLTFGGGTKVEIKR", "100 nM hIL-36R-Trap-mFc Bound (RU)": 157}
{"binder": "H4H14731P (antibody, human IgG4 S228P, kappa, V domains shown, Fully human anti-IL-36R antibody) VH: QLQLQESGPGLVKPSETLSLTCTVSGGSISSSNYYWGWIRQPPGKRLEWIGSIYYSGSTYYNPSLKTRVTISVDTSKNQFSLKLTSVTAADTAVYYCAREEAAALTHFDFWGQGTLVTVSS VL: DIQMTQSPSSLSASVGDRVTITCRASQSISNYLNWYQQKPGKAPKLLIFAASSLQSGVPSRFSGSGSGTDFTLTISSLQPEDFATYYCQHSHSSHPITFGQGTRLEIKR", "100 nM hIL-36R-Trap-mFc Bound (RU)": 60}
